# System: Ctenocephalides felis
# TEST PARAMETERS: 8 h; data from laboratory 1
# Method: b) Ctenocephalides felis Adulticide Assay: C. felis Single Dose Screen Mortality of fleas was the primary endpoint in the assay. Fleas were considered dead if they didn't move or were on their sides and unable to walk or right themselves. […] The concentration chosen (1.26 μg/cm^2) was higher than that known to kill 90% of cat fleas (LC90) using the reference compound, permethrin. The test species was the cat flea (Ctenocephalides felis). […]
Classification field: enter Met for C. felis Mortality (%) 8 h values not below 9%, Not met for values below it.

Illustrative cases are given below, each with its answer.
- COMPOUND: "CC(=NN(C)c1ccccc1)c1cc2c(cc1NS(=O)(=O)C(F)(F)F)OCO2 [Compound 172]"
  TEST SYSTEM: "Ctenocephalides felis"
  CLASS LABEL: "Not met"
- COMPOUND: "CCC(=NN(CC)C1CCCC1)c1cc(Cl)ccc1NS(=O)(=O)C(F)(F)F [Compound 214]"
  TEST SYSTEM: "Ctenocephalides felis"
  CLASS LABEL: "Not met"
- COMPOUND: "CCC(=NNC(=O)c1ccccc1Cl)c1cc(Cl)ccc1NS(=O)(=O)C(F)(F)F [Compound 80]"
  TEST SYSTEM: "Ctenocephalides felis"
  CLASS LABEL: "Met"
- COMPOUND: "CC(=NN(C)c1cccc(Cl)n1)c1cc(Cl)ccc1NS(=O)(=O)C(F)(F)F [Compound 197]"
  TEST SYSTEM: "Ctenocephalides felis"
  CLASS LABEL: "Not met"

Is C. felis Mortality (%) 8 h at least 9%? Consider CC(=NNC(=O)Nc1ccc(Cl)cc1)c1cc(Cl)ccc1NS(=O)(=O)C(F)(F)F [Compound 92]
Not met

Is C. felis Mortality (%) 8 h at least 9%? Consider CC(=NN1CCCCC1)c1ccc(NS(=O)(=O)C(F)(F)F)cc1 [Compound 167]
Not met

Is C. felis Mortality (%) 8 h at least 9%? Consider CC(=NN(c1cc(Cl)cc(Cl)c1)C(C)C)c1cc(Cl)ccc1NS(=O)(=O)C(F)(F)F [Compound 67]
Met

Is C. felis Mortality (%) 8 h at least 9%? Consider CCOCN(c1ccc(Cl)cc1C(C)=NN1CCCCC1)S(=O)(=O)C(F)(F)F [Compound 145]
Not met

Is C. felis Mortality (%) 8 h at least 9%? Consider CC(=NN1CCCCC1)c1cc(Cl)ccc1N(C)S(=O)(=O)C(F)(F)F [Compound 134]
Not met

Is C. felis Mortality (%) 8 h at least 9%? Consider O=S(=O)(Nc1ccc(Cl)cc1C(=NNc1ccc(Cl)cc1)c1ccccc1)C(F)(F)F [Compound 121]
Met

Is C. felis Mortality (%) 8 h at least 9%? Consider CC(=Nn1cc2ccccc2n1)c1cc(Cl)ccc1NS(=O)(=O)C(F)(F)F [Compound 189]
Not met

Is C. felis Mortality (%) 8 h at least 9%? Consider CCC(=NNC(=O)OC(C)(C)C)c1cc(Cl)ccc1NS(=O)(=O)C(F)(F)F [Compound 89]
Not met

Is C. felis Mortality (%) 8 h at least 9%? Consider C/C(=N\N(C)c1cnc2ccccc2n1)c1cc(Cl)ccc1NS(=O)(=O)C(F)(F)F [Compound 210]
Not met

Is C. felis Mortality (%) 8 h at least 9%? Consider CC(=NN(C)c1cc(Cl)ccc1Cl)c1cc(Cl)ccc1NS(=O)(=O)C(F)(F)F [Compound 141]
Met

Is C. felis Mortality (%) 8 h at least 9%? Consider CC(=Nn1c(=O)[nH]nc(C)c1=O)c1cc(Cl)ccc1NS(=O)(=O)C(F)(F)F [Compound 199]
Not met

Is C. felis Mortality (%) 8 h at least 9%? Consider CCN(N=C(C)c1cc(Cl)ccc1NS(=O)(=O)C(F)(F)F)c1ccc(C)cc1 [Compound 101]
Met

These measurements were taken from patent US20070238700A1.
